// provenance: the METLIN SMRT retention time set (Domingo-Almenara et al. 2019)

# EXPERIMENT: gradient 5% acetonitrile 3 min, to 50% in 2 min, to 85% in 15 min, held 3 min, 100 µL/min
# PARTICULARS: column: Zorbax Extend-C18 2.1 x 50 mm; eluents: water / acetonitrile, 0.1% formic acid
READOUT: RP-LC retention time (s)

MOLECULE	READOUT	RECORDED_NUMBER
CN1CCN(C(=O)c2csc(N3CCN(c4ccc(F)cc4)CC3)n2)CC1	RP-LC retention time	643

[a] COCCCNC(=O)C1c2ccccc2C(=O)N1Cc1cccc(Br)c1 (stereo not given)
[b] COC1CCC12CCN(S(=O)(=O)c1ccc(C)c(Cl)c1)CC2 (stereo not given)
Prompt line: Compare the recorded RP-LC retention time of a and b ; state which is larger. # respond with the chosen item's label
Response line: b

----------
# EXPERIMENT: gradient 5% acetonitrile 3 min, to 50% in 2 min, to 85% in 15 min, held 3 min, 100 µL/min
# PARTICULARS: column: Zorbax Extend-C18 2.1 x 50 mm; eluents: water / acetonitrile, 0.1% formic acid
READOUT: RP-LC retention time (s)

MOLECULE	READOUT	RECORDED_NUMBER
CCOc1ccccc1NC(=O)CN1C(=O)CC(c2cccs2)=Nc2ccccc21	RP-LC retention time	1050
Cc1cc2ncn(S(=O)(=O)N3CCCC3)c2cc1C	RP-LC retention time	837
COc1ccc(NC(=O)N2CCN(c3nc4ccccc4nc3C(F)(F)F)CC2)c(OC)c1	RP-LC retention time	1070
CCn1nc(N2CCCC(NC(=O)Cn3c(=O)oc4ccccc43)C2)ccc1=O (stereo not given)	RP-LC retention time	707

[a] CCC(=O)N1CCC([C@H]2[C@@H](OC)C(=O)N2C(C)C)CC1
[b] O=C(COc1ccc(Cl)cc1)Nc1nc(-c2ccc(Cl)cc2)cs1
Prompt line: Would you kindly point out which of a and b has the smaller RP-LC retention time figure? Return value: the label identifying the chosen record.
Response line: a
(a: 644 s, b: 1190 s)

----------
# EXPERIMENT: gradient 5% acetonitrile 3 min, to 50% in 2 min, to 85% in 15 min, held 3 min, 100 µL/min
# PARTICULARS: column: Zorbax Extend-C18 2.1 x 50 mm; eluents: water / acetonitrile, 0.1% formic acid
READOUT: RP-LC retention time (s)

Use these answered entries as a reference point.
MOLECULE	RECORDED_NUMBER
O=C(Cn1nc(C(=O)N2CCCC2)c2ccccc21)NCCc1cccs1	775
Cc1nc(-c2cn(C)c3ncccc23)sc1C(=O)Nc1cc(F)ccc1F	944
CC(C)N1CCN(C(=O)c2cn3ccnc(-c4ccccc4)c3n2)CC1	602
Cc1ccc(S(=O)(=O)N2CCC3(CC2)NCCCN=C3NC2CCCC2)cc1Cl	814
O=C(NCCN1CCOCC1)C1CN(C(=O)c2ccccc2)CC12CCCCC2 (stereo not given)	605

[I] CCn1c(CCNC(=O)c2cc(C)cc(C)c2)nc2cccnc21
[II] Cc1nc(-c2ccc(-c3noc(CNS(=O)(=O)c4ccccc4)n3)cc2)cs1
Prompt line: Lower value of RP-LC retention time belongs to which: I or II ? Give the label of your selection.
Response line: I

----------
# EXPERIMENT: gradient 5% acetonitrile 3 min, to 50% in 2 min, to 85% in 15 min, held 3 min, 100 µL/min
# PARTICULARS: column: Zorbax Extend-C18 2.1 x 50 mm; eluents: water / acetonitrile, 0.1% formic acid
READOUT: RP-LC retention time (s)

[I] COCc1nncn1C1CCN(S(=O)(=O)c2ccc(C(F)(F)F)cc2)CC1
[II] O=C(Nc1cc(F)ccc1F)C1CCCN(c2nc3ccccc3nc2C(F)(F)F)C1 (stereo not given)
Prompt line: // select label with min value of measured RP-LC retention time from [ I , II ] Select an item and report its label.
Response line: I

----------
# EXPERIMENT: gradient 5% acetonitrile 3 min, to 50% in 2 min, to 85% in 15 min, held 3 min, 100 µL/min
# PARTICULARS: column: Zorbax Extend-C18 2.1 x 50 mm; eluents: water / acetonitrile, 0.1% formic acid
READOUT: RP-LC retention time (s)

COMPOUND	READOUT	DISPLAY_UNIT	RECORDED_NUMBER
COCC(C)NC(=O)c1cc2c(s1)N(CC1CC1)CCCC2 (stereo not given)	RP-LC retention time	s	976
CN1CCN(CCCNC(=O)c2noc3c2CCCCC3)CC1	RP-LC retention time	s	584
COc1ccc(-c2nsc(SCC(=O)N3CCCCCC3)n2)cc1	RP-LC retention time	s	846
CC(=O)c1cccc(S(=O)(=O)Nc2ccc(CC(=O)N(C)C)cc2)c1	RP-LC retention time	s	651
COc1cc(C(=O)N2CCCN(c3cc(=O)n(C)c(=O)n3C)CC2)cc(OC)c1OC	RP-LC retention time	s	624

[I] COc1ccc(NC(=O)Cc2csc3nc(-c4ccccc4)cn23)cc1OC
[II] Cc1ccc(-c2nnc(-c3nn(C)c4c3CN(S(=O)(=O)c3ccc(C(C)C)cc3)CC4)o2)cc1
Prompt line: I'm curious, which of these has a smaller RP-LC retention time number: I or II ? Answer format: the label of the selected item.
Response line: I
(I: 703 s, II: 1160 s)

[I] Cc1nnc2ccc(N3CCC(C)CC3)nn12
[II] Cc1ccccc1CN1CCC(CNS(=O)(=O)c2ccc3c(c2)CCCC(=O)N3)CC1
Prompt line: // pick larger RP-LC retention time from pair: I vs II Write down the label attached to your selection.
Response line: I
(I: 1000 s, II: 616 s)

[P] O=C(C1CC(=O)N(C2CCCCCC2)C1)N1CCCN(c2ccc(=O)n(-c3ccccc3)n2)CC1 (stereo not given)
[Q] CCOc1ccc(S(=O)(=O)N2CC(=O)N(C3CCCC3)C3(CCCCC3)C2)cc1
Prompt line: Could you determine which record has the numerically smaller RP-LC retention time? Candidates: P and Q Pick one; state its label.
Response line: P
(P: 740 s, Q: 1230 s)

----------
# EXPERIMENT: gradient 5% acetonitrile 3 min, to 50% in 2 min, to 85% in 15 min, held 3 min, 100 µL/min
# PARTICULARS: column: Zorbax Extend-C18 2.1 x 50 mm; eluents: water / acetonitrile, 0.1% formic acid
READOUT: RP-LC retention time (s)

COMPOUND	DISPLAY_UNIT	RP-LC retention time
CCOC(=O)c1ccc(NC(=O)N2CCCC2c2cc(C)on2)cc1 (centres undefined)	s	809
Cc1ccc(C)c(NS(=O)(=O)c2ccc(-c3c(C)noc3C)cc2)c1	s	996
COc1ccc(-c2cn3c(CC(=O)N4CCN(c5cccc(Cl)c5)CC4)csc3n2)cc1OC	s	835
COc1ccc(-c2nnc(COc3ccc(NC(=O)c4ccoc4)cc3)o2)cc1	s	738
CC(C)NC(=O)c1ccc(OCC2CCCN(C(=O)c3ccccc3Cl)C2)cc1 (centres undefined)	s	876
CCOC(=O)c1noc2ncnc(NCCCN3CCN(c4cccc(C)c4)C(C)C3)c12 (centres undefined)	s	619
COC(=O)Nc1csc2c1NC(=O)CCCC2	s	716
Cc1noc(C)c1CCNC(=O)C1CCCN(c2nc3ccccc3n(Cc3ccccc3)c2=O)C1 (centres undefined)	s	974
CC(C)NC(=O)CCn1c(=O)c2ccccc2n2c(=O)n(Cc3ccccc3)nc12	s	801

----------
# EXPERIMENT: gradient 5% acetonitrile 3 min, to 50% in 2 min, to 85% in 15 min, held 3 min, 100 µL/min
# PARTICULARS: column: Zorbax Extend-C18 2.1 x 50 mm; eluents: water / acetonitrile, 0.1% formic acid
READOUT: RP-LC retention time (s)

The examples below pair each entry with its known result.
COMPOUND	RP-LC retention time (s)
O=C(Cc1ccc(NC(=O)c2ccsc2)cc1)NCc1cccs1	725
CCOCCn1c(=O)c2c(nc3n2CCCCN3c2ccc(OCC)cc2)n(C)c1=O	906
COC[C@@H]1CN(S(=O)(=O)c2cccnc2)C[C@H]1c1ccncc1	652
CC(C)n1cnc(S(=O)(=O)N2CCCC(C(=O)Nc3cccc(CN4CCCC4)c3)C2)c1 (centres undefined)	627
O=C(NCC1CCN(S(=O)(=O)C2CC2)CC1)C1(c2ccc(F)cc2)CC1	595
Nc1cc(C2CCN(C(=O)c3ccc(F)c(F)c3)CC2)no1	680
O=C(CCc1c(-c2ccc(F)cc2)nc2ccccn12)NCc1cccc(Br)c1	677

[a] Cc1nc2cc(-c3noc(-c4cccc(Cl)c4)n3)ccc2n(C)c1=O
[b] COc1ccc(CCC(=O)N2CCC[C@@H]2C(=O)NCCc2csc(C)n2)cc1
Prompt line: From the items above, decide which of a and b has the lower RP-LC retention time reading. Field: selected label. Fill in the label of the entry you choose.
Response line: b
